5-hydroxytryptamine receptor 4 (Homo sapiens) measurements of pKi, listed per entry.
Sequence (Q13639 whole entry): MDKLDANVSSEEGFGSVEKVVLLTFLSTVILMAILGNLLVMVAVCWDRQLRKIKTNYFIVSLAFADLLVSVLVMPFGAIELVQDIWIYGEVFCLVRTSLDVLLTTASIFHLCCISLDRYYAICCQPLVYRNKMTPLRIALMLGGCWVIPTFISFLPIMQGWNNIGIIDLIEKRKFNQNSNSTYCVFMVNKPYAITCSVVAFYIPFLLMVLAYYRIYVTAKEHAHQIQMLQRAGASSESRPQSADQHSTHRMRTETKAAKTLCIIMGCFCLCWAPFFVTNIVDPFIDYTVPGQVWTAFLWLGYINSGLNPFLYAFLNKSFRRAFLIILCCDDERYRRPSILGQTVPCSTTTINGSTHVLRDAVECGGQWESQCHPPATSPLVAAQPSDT
Please report pKi as the negative decimal logarithm of the molar concentration, giving only the number.

Worked set:
- molecule: "COc1cc(N)c(Cl)cc1C(=O)NC1CN2CCC1CC2 (centres undefined) [ZACOPRIDE,R]"
  pKi: 6.55
- molecule: "COc1[nH]c2ccc(F)cc2c1C(=O)OCC1CCN(CCNS(C)(=O)=O)CC1"
  pKi: 10.70
- molecule: "CC(C)n1c(=O)n(C(=O)NC2CC3CCC(C2)N3C)c2ccccc21 (centres undefined)"
  pKi: 7.34

Consider the additional molecule presented here.
*Q* Tell me reported pKi for COc1ccc2[nH]cc(CCN)c2c1 , tested with 5-hydroxytryptamine receptor 4 (Homo sapiens).
*A* 6.81
